Recorded values, source ChEMBL document CHEMBL1134494.

Entries and their measured IC50 follow.
- Tested on: HeLa
- protocol details: Antiviral activity against K103N/P225H mutant virus in the HeLa MAGI assay.
- Type: functional, cell-based, Homo sapiens
Return type: number; implicit unit µM.

| cpd smiles | IC50 (µM) |
| --- | --- |
| Cc1cc(C)cc(S(=O)(=O)c2cccc(N)c2C#N)c1 | 3.3 |
| N#Cc1c(N)cccc1S(=O)(=O)c1cc(Cl)cc(Cl)c1 | 3.8 |

The recorded IC50 for entry N#Cc1c(N)cccc1S(=O)(=O)c1cccc2ccccc12 equals 2.8

The recorded IC50 for entry COc1cc(C)cc(S(=O)(=O)c2cccc(N)c2C#N)c1 equals 7.8

The recorded IC50 for entry Cc1cc(Cl)cc(S(=O)(=O)c2cccc(N)c2C#N)c1 equals 19

The recorded IC50 for entry O=C1Nc2ccc(Cl)cc2[C@@](C#CC2CC2)(C(F)(F)F)O1 equals 0.13

====

- System: Human immunodeficiency virus 1
- protocol details: Antiviral activity against HIV-1 infected human MT-4 cells.
- Assay type: functional, organism-based
- test parameters: Human immunodeficiency virus 1, MT4
Grouping by measured IC50 is done with the following cut points: bottom end (below 0.6 µM), midrange (0.6 µM to below 40 µM), top end (40 µM or more)

The following compounds have reported results that may help.
| compound | label class |
| --- | --- |
| CCCOc1cc(C)cc(S(=O)(=O)c2cccc(N)c2C#N)c1 | bottom end |
| Cc1ccc(Sc2cccc(N)c2C#N)cc1 | top end |
| N#Cc1c(N)cccc1[S+]([O-])c1cccc(Br)c1 (configuration not stated) | bottom end |

IN: Which band does N#Cc1c(N)cccc1S(=O)(=O)c1cc(Cl)cc(Cl)c1 fall in?
OUT: bottom end

IN: Which band does Cc1cccc([S+]([O-])c2cccc(N)c2C#N)c1 (configuration not stated) fall in?
OUT: midrange

IN: Which band does N#Cc1ccc(S(=O)(=O)c2cccc(N)c2C#N)cc1 fall in?
OUT: top end

IN: Which band does N#Cc1c(F)cccc1S(=O)(=O)c1cc(Cl)cc(Cl)c1 fall in?
OUT: top end

IN: Which band does COc1cccc(Sc2cccc(N)c2C#N)c1 fall in?
OUT: midrange

IN: Which band does COc1cc(Sc2cccc(N)c2C#N)cc(C(F)(F)F)c1 fall in?
OUT: midrange

IN: Which band does N#Cc1c(N)cccc1Sc1ccccc1 fall in?
OUT: midrange

====

- experimental system: Human immunodeficiency virus type 1 reverse transcriptase (Human immunodeficiency virus 1, UniProt Q72547)
readout: log10(IC50) (log10 of the value in µM)
A difference of one corresponds to tenfold IC50; all values are log10 with IC50 in µM.

| molecule | readout | endpoint value |
| --- | --- | --- |
| Cc1cccc([S+]([O-])c2cccc(N)c2C#N)c1 (configuration not stated) | log10(IC50) | 1.00 |
| COc1cc(C)cc(S(=O)(=O)c2cccc(N)c2C#N)c1 | log10(IC50) | -2.00 |
| O=[N+]([O-])c1ccccc1S(=O)(=O)c1ccccc1[N+](=O)[O-] | log10(IC50) | 1.15 |

The recorded log10(IC50) for entry Cc1ccc(S(=O)(=O)c2cccc(N)c2C#N)cc1 equals 0.86

The recorded log10(IC50) for entry N#Cc1c(N)cccc1Sc1ccccc1Cl equals 0.86

The recorded log10(IC50) for entry COc1ccccc1Sc1cccc(N)c1C#N equals 0.43

The recorded log10(IC50) for entry Cc1cc(Cl)cc(S(=O)(=O)c2cccc(N)c2C#N)c1 equals -2.30

The recorded log10(IC50) for entry COc1cc([S+]([O-])c2cccc(N)c2C#N)cc(C(F)(F)F)c1 (configuration not stated) equals -0.05

The recorded log10(IC50) for entry N#Cc1c(N)cccc1Sc1cccc(F)c1 equals 1.08

The recorded log10(IC50) for entry N#Cc1c(N)cccc1Sc1cccc(C(F)(F)F)c1 equals 0.85

The recorded log10(IC50) for entry N#Cc1c(N)cccc1S(=O)(=O)c1cccc(Cl)c1 equals -0.40

====

Entries and their measured pIC50 follow.
- Tested on: Human immunodeficiency virus 1
- protocol details: Antiviral activity against HIV-1 infected human MT-4 cells.
- Format: functional, organism-based
- test parameters: Human immunodeficiency virus 1, MT4
// pIC50 here means minus log10 of the molar concentration (mol/L)

| molecule | experimental system | pIC50 |
| --- | --- | --- |
| N#Cc1c(N)cccc1Sc1cccc(C(F)(F)F)c1 | Human immunodeficiency virus 1 | 4.89 |

In the following, a different molecule is considered.
The recorded pIC50 for entry N#Cc1c(N)cccc1[S+]([O-])c1cc(Cl)ccc1Cl (stereo not drawn) equals 5.01

====

- Test system: Human immunodeficiency virus 1
- protocol details: Antiviral activity against HIV-1 infected human MT-4 cells.
- Assay type: functional, organism-based
- test parameters: Human immunodeficiency virus 1, MT4
Entries and their measured IC50 follow.
Return type: number; implicit unit µM.

| compound | experimental system | readout | endpoint value |
| --- | --- | --- | --- |
| N#Cc1cccc([S+]([O-])c2cccc(N)c2C#N)c1 (stereo unspecified) | Human immunodeficiency virus 1 | IC50 | 14.2 |
| Cc1ccc(S(=O)(=O)c2cccc(N)c2C#N)cc1 | Human immunodeficiency virus 1 | IC50 | 9.5 |
| COc1cc(C(F)(F)F)cc(S(=O)(=O)c2cccc(N)c2C#N)c1 | Human immunodeficiency virus 1 | IC50 | 0.09 |

The recorded IC50 for entry Cc1cc(C)cc(Sc2cccc(N)c2C#N)c1 equals 0.43

The recorded IC50 for entry COc1cccc([S+]([O-])c2cccc(N)c2C#N)c1 (stereo unspecified) equals 16

The recorded IC50 for entry N#Cc1ccccc1S(=O)(=O)c1cccc(N)c1C#N equals 5.4

====

- System: Human immunodeficiency virus 1
- protocol details: Antiviral activity against HIV-1 infected human MT-4 cells.
- Format: functional, organism-based
- test parameters: Human immunodeficiency virus 1, MT4
pIC50: −log10 of the molar value.
Param threshold (5) applies to pIC50; output Fulfilled when value >= threshold, Not fulfilled when value < threshold.

| molecule | label class |
| --- | --- |
| N#Cc1c(N)cccc1S(=O)(=O)c1cc(Cl)ccc1Cl | Fulfilled |
| Cc1ccccc1[S+]([O-])c1cccc(N)c1C#N (stereo not given) | Not fulfilled |
| N#Cc1c(N)cccc1S(=O)(=O)c1ccccc1Br | Fulfilled |
| Cc1ccccc1S(=O)(=O)c1cccc(N)c1C#N | Fulfilled |
| N#Cc1c(N)cccc1S(=O)(=O)c1cccc2ccccc12 | Fulfilled |
| COc1ccccc1[S+]([O-])c1cccc(N)c1C#N (stereo not given) | Fulfilled |
| COc1cc([S+]([O-])c2cccc(N)c2C#N)cc(C(F)(F)F)c1 (stereo not given) | Fulfilled |
| N#Cc1c(N)cccc1S(=O)(=O)c1ccccc1Cl | Fulfilled |

Then this molecule:
IN: # check: pIC50 of Cc1cc(C)cc(S(=O)(=O)c2cccc(N)c2C#N)c1 is greater than or equal to 5
OUT: Fulfilled

====

- System: Human immunodeficiency virus 1
- protocol details: Antiviral activity against HIV-1 infected human MT-4 cells.
- Type: functional, organism-based
- test parameters: Human immunodeficiency virus 1, MT4
Entries and their measured pIC50 follow.
// pIC50 here means minus log10 of the molar concentration (mol/L)

| cpd smiles | pIC50 |
| --- | --- |
| N#Cc1c(N)cccc1Sc1cccc(Cl)c1 | 5.13 |
| Cc1cc(Cl)cc(Sc2cccc(N)c2C#N)c1 | 5.75 |
| COc1ccc(S(=O)(=O)c2cccc(N)c2C#N)cc1 | 4.60 |

In the following, a different molecule is considered.
The recorded pIC50 for entry Cc1cc(O)cc(S(=O)(=O)c2cccc(N)c2C#N)c1 equals 6.37
